# inhibition per entry
Molecular target: Transcriptional enhancer factor TEF-3 (Homo sapiens, UniProt Q15561)
Sequence (Q15561 whole entry, the tested form may be a part): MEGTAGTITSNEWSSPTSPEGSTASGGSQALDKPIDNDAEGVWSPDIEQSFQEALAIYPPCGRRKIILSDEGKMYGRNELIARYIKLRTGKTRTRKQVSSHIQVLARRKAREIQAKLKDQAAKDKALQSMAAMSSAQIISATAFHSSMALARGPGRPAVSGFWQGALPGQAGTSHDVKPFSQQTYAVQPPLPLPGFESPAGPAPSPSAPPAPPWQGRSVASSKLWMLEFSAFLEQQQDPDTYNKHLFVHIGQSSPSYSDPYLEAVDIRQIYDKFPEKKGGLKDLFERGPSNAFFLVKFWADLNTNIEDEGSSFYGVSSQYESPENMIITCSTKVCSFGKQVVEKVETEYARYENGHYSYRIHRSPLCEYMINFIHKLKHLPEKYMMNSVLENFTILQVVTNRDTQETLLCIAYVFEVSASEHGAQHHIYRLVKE
Test: Inhibition of N-terminal His6 tagged human TEAD4-YBD (217 to 434 residues) expressed in Escherichia coli C43 (DE3) cells assessed as reduction in autopalmitoylation at 800 nM preincubated for 2 hrs followed by palmitoyl alkyne-coenzyme A addition and measured after 30 mins by immunoblot analysis relative to control
// note: answer is a bare numeric in %

Worked examples, 5 compounds total:
C=CS(=O)(=O)Nc1ccc(Cc2ccc3ccccc3c2)c(OC2CCNCC2)c1 ... 6.5
C=CS(=O)(=O)Nc1ccc2ccccc2c1 ... 1.1
C=CS(=O)(=O)Oc1ccc(Oc2ccccc2)cc1 ... 94.8
C=CS(=O)(=O)Nc1ccc(Cc2ccc3ccccc3c2)c(O)c1 ... 92.1
C=CS(=O)(=O)Nc1ccc(C(=O)Nc2ccc3c(c2)CCNC3)cc1 ... 10.1

// below: inhibition requested for another compound
Record C=CS(=O)(=O)Nc1ccc(OCc2ccccc2)cc1 . Reported inhibition: 52.5

====

Target: Transcriptional enhancer factor TEF-3 (Homo sapiens, UniProt Q15561)
Test: Inhibition of N-terminal His6 tagged human TEAD4-YBD (217 to 434 residues) expressed in Escherichia coli C43 (DE3) cells assessed as reduction in autopalmitoylation at 200 nM preincubated for 2 hrs followed by palmitoyl alkyne-coenzyme A addition and measured after 30 mins immunoblot analysis relative to control
MEASURED_METRIC: inhibition
State the value, then name its unit.

Worked examples, 2 compounds total:
C=CS(=O)(=O)Nc1ccc(NC(=O)c2ccc3ccccc3c2)cc1 ... 15.6%
C=CS(=O)(=O)Nc1ccc2c(c1)CCN(C(=O)c1ccccc1)C2 ... 5.4%

Item C=CS(=O)(=O)Nc1ccc(C(=O)Nc2ccc3c(c2)CCNC3)cc1 was tested on Transcriptional enhancer factor TEF-3 (Homo sapiens, UniProt Q15561); the reported inhibition is 0.3%

Item C=CS(=O)(=O)Nc1ccc(OCc2ccccc2)cc1 was tested on Transcriptional enhancer factor TEF-3 (Homo sapiens, UniProt Q15561); the reported inhibition is 21%

Item C=CS(=O)(=O)Nc1ccc(Cc2ccc3ccc(O)cc3c2)cc1 was tested on Transcriptional enhancer factor TEF-3 (Homo sapiens, UniProt Q15561); the reported inhibition is 18.9%

Item C=CS(=O)(=O)Nc1ccc(Cc2ccc3ccccc3c2)c(OC2CCNCC2)c1 was tested on Transcriptional enhancer factor TEF-3 (Homo sapiens, UniProt Q15561); the reported inhibition is 1.2%

====

Biological target: Transcriptional enhancer factor TEF-3 (Homo sapiens, UniProt Q15561)
Test: Inhibition of N-terminal His6 tagged human TEAD4-YBD (217 to 434 residues) expressed in Escherichia coli C43 (DE3) cells assessed as reduction in autopalmitoylation preincubated for 2 hrs followed by palmitoyl alkyne-coenzyme A addition and measured after 30 mins by immunoblot analysis
MEASURED_METRIC: pIC50
Quick note: pIC50 values are minus log10 of concentrations in mol/L.

Record C=CS(=O)(=O)Nc1ccc(Cc2ccc3ccccc3c2)cc1 . Reported pIC50: 6.71

====

# inhibition per entry
Target: Transcriptional enhancer factor TEF-3 (Homo sapiens, UniProt Q15561)
Experiment: Inhibition of N-terminal His6 tagged human TEAD4-YBD (217 to 434 residues) expressed in Escherichia coli C43 (DE3) cells assessed as reduction in autopalmitoylation at 800 nM preincubated for 2 hrs followed by palmitoyl alkyne-coenzyme A addition and measured after 30 mins by immunoblot analysis relative to control
// note: answer is a bare numeric in %

Worked examples, 5 compounds total:
C=CS(=O)(=O)Nc1ccc(Cc2ccccc2)cc1 ... 92.5
C=CS(=O)(=O)Nc1ccc2c(c1)CCN(C(=O)c1ccccc1)C2 ... 25.4
C=CS(=O)(=O)Nc1ccc(Cc2ccc3ccc(O)cc3c2)cc1 ... 82.5
C=CS(=O)(=O)Nc1ccc(Cc2ccc3ccccc3c2)cc1 ... 91.6
C=CS(=O)(=O)Nc1ccccc1Oc1ccccc1 ... 25.2

// below: inhibition requested for another compound
Record C=CS(=O)(=O)Nc1ccc(NC(=O)c2ccc3ccccc3c2)cc1 . Reported inhibition: 35

====

Target: Transcriptional enhancer factor TEF-3 (Homo sapiens, UniProt Q15561)
Assay: Inhibition of N-terminal His6 tagged human TEAD4-YBD (217 to 434 residues) expressed in Escherichia coli C43 (DE3) cells assessed as reduction in autopalmitoylation at 200 nM preincubated for 2 hrs followed by palmitoyl alkyne-coenzyme A addition and measured after 30 mins immunoblot analysis relative to control
MEASURED_METRIC: inhibition (%)
// note: answer is a bare numeric in %

C=CS(=O)(=O)Nc1ccc(Cc2ccc3ccccc3c2)c(O)c1 ... 44.3

Record C=CS(=O)(=O)Oc1ccc(Oc2ccccc2)cc1 . Reported inhibition: 62.2

Record C=CS(=O)(=O)Nc1ccccc1Oc1ccccc1 . Reported inhibition: -4.1

Record C=CS(=O)(=O)Nc1ccc2ccccc2c1 . Reported inhibition: 8.4

Record C=CS(=O)(=O)Nc1ccc(Cc2ccc3ccccc3c2)cc1 . Reported inhibition: 72.5

Record C=CS(=O)(=O)Nc1ccc(Cc2ccccc2)cc1 . Reported inhibition: 59.2
